Test system: Panc02 cells
experimentNotes: In vitro cytotoxicity in Panc02 cells (MTS assay)
Format: cell-based, murine
conditionNotes: Mus musculus; Panc02 cells, 48 h; read-out: IC50
propertyMeasured: IC50 (nM)
Number in nM, nothing else.

Identify IC50 associated with the molecule Nc1ccn([C@@H]2O[C@H](CO)[C@@H](O)C2(F)F)c(=O)n1 [GEM, gemcitabine]
110

Cited source for all entries: patent US20240042045A1
